system: NCI-H1703 (Trop2-); assay: Cell proliferation (cell killing) assay, Cell Titer-Glo, 120 hours; assay type: cell-based, human; settings: Homo sapiens

- compound: "CC[C@@]1(O)C(=O)OCc2c1cc1n(c2=O)Cc2c-1nc1cc(F)c(C)c3c1c2[C@@H](N)CC3 [Exatecan, exatecan, reference compound]"
  EC50: "1.04 nM"
- compound: "CCn1nc(C)cc1C(=O)Nc1nc2cc(C(N)=O)cc(OC)c2n1C/C=C/Cn1c(NC(=O)c2cc(C)nn2CC)nc2cc(C(N)=O)cc(OCCCN3CCC(c4nnc5n4CCNC5)CC3)c21 [Compound S-3]"
  EC50: "> 100 nM"
- compound: "CCn1nc(C)cc1C(=O)Nc1nc2cc(C(N)=O)ccc2n1C/C=C/Cn1c(NC(=O)c2cc(C)nn2CC)nc2cc(C(N)=O)cc(OCCCN3CC4(CNCCO4)C3)c21 [Compound S-1]"
  EC50: "> 100 nM"
